# EXPERIMENTAL_TARGET: T1, SWSAP1 D96A (Walker B);hSWS1 (Homo sapiens;Homo sapiens, UniProt Q6NVH7;Q19AV6 22-250;1-140, D117A|)
# T1 sequence 1: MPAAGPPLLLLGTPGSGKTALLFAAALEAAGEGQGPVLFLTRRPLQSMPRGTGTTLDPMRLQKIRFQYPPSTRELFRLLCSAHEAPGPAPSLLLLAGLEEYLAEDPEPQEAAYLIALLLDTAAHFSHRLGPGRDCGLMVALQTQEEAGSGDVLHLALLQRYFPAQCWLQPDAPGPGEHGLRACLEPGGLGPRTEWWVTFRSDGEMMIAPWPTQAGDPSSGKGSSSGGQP
# T1 sequence 2: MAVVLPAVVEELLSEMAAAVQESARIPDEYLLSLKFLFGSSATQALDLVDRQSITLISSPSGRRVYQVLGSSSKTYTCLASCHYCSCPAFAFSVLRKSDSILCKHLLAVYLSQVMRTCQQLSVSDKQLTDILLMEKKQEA
# PROTOCOL_TEXT: fluorescence polarization; 2 mM ATP; FPA: 5 nM 6-FAM DNA, 37 C, 2 mM nucleotide where stated (buffer not given in material); EMSA: 0.05 uM 6-FAM DNA, 5%/15% native PAGE; RAD51 filaments: 2 mM ATP
# EXPERIMENTAL_PARAMETERS: protein: recombinant;recombinant; tags: N-terminal 6xHis-TEV, cleaved;none; copies: 1;1; label: 3' 6-FAM on strand 1; fork 1:2, 19 bp duplex, 20 nt arms
PARAMETER: Kd (µM)

BINDER	VALUE_UNITS	READING
Fork (dsDNA) DNA 1: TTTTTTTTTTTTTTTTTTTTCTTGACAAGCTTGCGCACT DNA 2: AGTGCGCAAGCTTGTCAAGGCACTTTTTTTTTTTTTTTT	µM	22.4
